# assayed-target: T1, 4H32-AA
# T1 chain: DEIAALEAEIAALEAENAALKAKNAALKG
# protocol-notes: two-hybrid library CCmax;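 note: natural log of median RNA to DNA barcode read ratio; higher means stronger binding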
# measurement-context: mean of both orientations
Label key: YES means interaction score under 1; NO means interaction score of 1 or more.

{"binder": "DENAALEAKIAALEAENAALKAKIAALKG [4H1310-AA]", "category": "YES"}
{"binder": "DEIAALEAEIAALKAKNAALKAENAALEG [4H123-AA]", "category": "NO"}
{"binder": "DENAALEAKIAALKAEIAALEAKNAALEG [4H1351-AA]", "category": "YES"}
{"binder": "DENAALKAKIAALKAENAALEAEIAALKG [4H1874-AA]", "category": "NO"}
{"binder": "DKIAALEAENAALEAENAALEAKIAALKG [4H2198-AA]", "category": "YES"}
{"binder": "DENAALEAKIAALKAKIAALKAENAALKG [4H1388-AA]", "category": "NO"}
{"binder": "DKIAALKAEIAALEAKNAALEAENAALEG [4H2611-AA]", "category": "NO"}

Ref: paper PMC10397247
